Biological target: SpCas9:gRNA complex (Streptococcus pyogenes serotype M1, UniProt Q99ZW2)
Construct: His6 (N, cleaved yes); made in house; host or cells: E. coli BL21 Star (DE3)
Sequence (Q99ZW2 whole entry, one chain of several): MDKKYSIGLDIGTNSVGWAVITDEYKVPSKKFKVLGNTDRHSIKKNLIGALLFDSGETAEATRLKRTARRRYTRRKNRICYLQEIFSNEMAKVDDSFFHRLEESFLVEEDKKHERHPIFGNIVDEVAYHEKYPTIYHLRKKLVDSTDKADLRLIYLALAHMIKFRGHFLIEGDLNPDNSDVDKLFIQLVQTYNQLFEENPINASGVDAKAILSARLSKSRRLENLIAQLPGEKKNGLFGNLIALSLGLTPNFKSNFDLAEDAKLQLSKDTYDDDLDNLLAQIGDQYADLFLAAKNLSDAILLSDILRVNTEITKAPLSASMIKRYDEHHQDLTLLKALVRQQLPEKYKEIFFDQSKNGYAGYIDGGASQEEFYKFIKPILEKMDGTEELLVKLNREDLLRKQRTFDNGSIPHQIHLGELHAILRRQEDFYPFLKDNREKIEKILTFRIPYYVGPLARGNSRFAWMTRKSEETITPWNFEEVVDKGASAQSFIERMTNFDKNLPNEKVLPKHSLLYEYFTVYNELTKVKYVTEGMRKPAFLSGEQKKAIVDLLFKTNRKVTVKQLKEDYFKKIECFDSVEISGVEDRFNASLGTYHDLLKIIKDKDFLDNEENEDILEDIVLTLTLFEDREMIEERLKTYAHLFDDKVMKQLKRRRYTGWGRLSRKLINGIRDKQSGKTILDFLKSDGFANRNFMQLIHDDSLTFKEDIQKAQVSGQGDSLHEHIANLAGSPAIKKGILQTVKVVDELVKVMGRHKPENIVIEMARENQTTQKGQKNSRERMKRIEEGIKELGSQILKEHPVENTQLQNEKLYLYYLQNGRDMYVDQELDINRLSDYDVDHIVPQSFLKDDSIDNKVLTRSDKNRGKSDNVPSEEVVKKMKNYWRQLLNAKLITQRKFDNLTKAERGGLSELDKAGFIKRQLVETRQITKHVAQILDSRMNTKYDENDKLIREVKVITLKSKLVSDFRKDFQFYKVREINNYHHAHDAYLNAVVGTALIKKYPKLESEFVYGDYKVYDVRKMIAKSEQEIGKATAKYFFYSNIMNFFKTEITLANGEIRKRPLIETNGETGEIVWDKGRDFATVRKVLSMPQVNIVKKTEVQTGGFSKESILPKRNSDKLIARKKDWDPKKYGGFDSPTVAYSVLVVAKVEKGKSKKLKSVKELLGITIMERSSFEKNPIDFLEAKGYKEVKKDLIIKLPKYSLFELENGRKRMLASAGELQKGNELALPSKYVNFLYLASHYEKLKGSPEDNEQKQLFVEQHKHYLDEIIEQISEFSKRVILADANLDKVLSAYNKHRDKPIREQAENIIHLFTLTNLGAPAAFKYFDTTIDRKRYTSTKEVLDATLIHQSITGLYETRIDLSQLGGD
Assay: Bio-Layer Interferometry (BLI) of biotinylated compound with SpCas9:gRNA complex
Format: binding
Settings: 1 μM BRD7087-Biotin on streptavidin sensors; SpCas9:gRNA 1-0.15 μM; read-out: dissociation constant (2:1 compound to Cas9 binding isotherm)
measure-name: Kd

## Task State its Kd for this molecule: O=C(CCCC[C@@H]1SC[C@@H]2NC(=O)N[C@@H]21)NCCOCCOCCOCCC(=O)Nc1cccc(-c2ccc3c(c2)[C@H]2[C@H](CCN2Cc2ccncc2)[C@@H](CO)N3)c1 [biotin-conjugate of BRD7087]
## Result ~0.16 µM
